In this section, each of the compounds is paired with its reported IC50.
System: Trypanosoma cruzi
EXPERIMENT_SUMMARY: Antitrypanosomal activity against Trypanosoma cruzi Arequipa trypomastigote froms infected in mouse blood incubated for 24 hrs by Neubauer chamber based assay
Format: functional, organism-based
Your answer is read as µM, so omit the unit and give the number.

INSERT INTO assay_data (chemical_smiles, readout, meas_value) VALUES
  ('O=C(CCN1CCN(c2ccc([N+](=O)[O-])cc2)CC1)c1csc2ccccc12', 'IC50', 35.9);

stdin: Find the recorded IC50 belonging to O=C(CCN1CCN(c2ccc([N+](=O)[O-])cc2C(F)(F)F)CC1)c1csc2ccccc12 and report it.
stdout: 20.3

stdin: What value of IC50 has been recorded for this entry: O=C(Cn1ccnc1[N+](=O)[O-])NCc1ccccc1
stdout: 12.6

stdin: Could you tell me which IC50 is on file for O=C(CCN1CCN(c2ccc(Cl)cc2)CC1)c1csc2ccc(F)cc12 ?
stdout: 9.6

stdin: I'd like to know its IC50. The compound in question is O=C(CCN1CCN(c2ccc(Cl)cc2)CC1)c1ccc2c(c1)OCO2
stdout: 46.3

stdin: For the compound O=C(CCN1CCN(c2ccc([N+](=O)[O-])cc2)CC1)c1ccc2ccccc2c1 , what IC50 is on record?
stdout: 3.9

stdin: If you can, please state the reported IC50 value of O=C(CCN1CCN(Cc2ccccc2)CC1)c1csc2ccccc12 .
stdout: 43.3

----------
STUDY_TARGET: Superoxide dismutase [Cu-Zn] (Homo sapiens, UniProt P00441)
Sequence (P00441 whole entry): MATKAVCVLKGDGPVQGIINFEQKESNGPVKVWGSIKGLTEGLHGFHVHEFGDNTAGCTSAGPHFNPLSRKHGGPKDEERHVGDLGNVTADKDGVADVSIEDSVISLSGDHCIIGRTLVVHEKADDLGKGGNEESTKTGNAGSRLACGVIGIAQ
READOUT: pIC50
# pIC50: negative log10 of molar concentration; output just the value

stdin: Given the entry O=C(CCN1CCN(c2ccc([N+](=O)[O-])cc2)CC1)c1csc2ccccc12 , report its measured pIC50.
stdout: 4.33

----------
Tested on: Trypanosoma cruzi
EXPERIMENT_SUMMARY: Antitrypanosomal activity against Trypanosoma cruzi infected in African green monkey Vero cells assessed as reduction in infection rate measured up to 10 days by Giemsa staining based hemocytometry
Type: functional
CONDITION_SET: time day <=10
Each item that follows carries a reported inhibition (INH).
Please respond with the number in % and leave the unit unwritten.

INSERT INTO measurements (chemical_smiles, study_target, meas_value) VALUES
  ('O=C(CCN1CCN(c2ccc([N+](=O)[O-])cc2)CC1)c1csc2ccccc12', 'Trypanosoma cruzi', 59),
  ('O=C(CCN1CCN(c2ccc(C(F)(F)F)cc2)CC1)c1csc2ccc(F)cc12', 'Trypanosoma cruzi', 47),
  ('O=C(CCN1CCN(c2ccc([N+](=O)[O-])cc2C(F)(F)F)CC1)c1csc2ccccc12', 'Trypanosoma cruzi', 76),
  ('O=C(CCN1CCN(c2ccc(F)cc2)CC1)c1csc2ccc(F)cc12', 'Trypanosoma cruzi', 54);

stdin: Reported inhibition (INH), compound O=C(Cn1ccnc1[N+](=O)[O-])NCc1ccccc1 : ____
stdout: 22

----------
System: Trypanosoma cruzi
EXPERIMENT_SUMMARY: Antitrypanosomal activity against Trypanosoma cruzi Arequipa trypomastigote froms infected in mouse blood incubated for 24 hrs by Neubauer chamber based assay
Type: functional, organism-based
Below, each entry is listed with its recorded log10(IC50).
Plainly stated, the numbers are log10 of IC50 given in µM.

Worked cases, log10(IC50) given:
INSERT INTO assay_data (chemical_smiles, readout, meas_value) VALUES
  ('O=C(CCN1CCN(c2cccc(C(F)(F)F)c2)CC1)c1ccsc1', 'log10(IC50)', 1.43),
  ('O=C(CCN1CCN(c2ccc(Cl)cc2)CC1)c1ccsc1', 'log10(IC50)', 1.67);

Attention now shifts to the item below.
stdin: Can you share its log10(IC50)? I mean this compound: O=C(CCN1CCN(c2ccc(F)cc2)CC1)c1ccc2ccccc2c1
stdout: 1.39
